These data points were gathered from ChEMBL document CHEMBL1909046.

- assay.system: Cytochrome P450 2A6 (Homo sapiens); further: in other assays of this panel Not Active means under 50% inhibition at 10 µM
- Sequence (P11509 whole entry): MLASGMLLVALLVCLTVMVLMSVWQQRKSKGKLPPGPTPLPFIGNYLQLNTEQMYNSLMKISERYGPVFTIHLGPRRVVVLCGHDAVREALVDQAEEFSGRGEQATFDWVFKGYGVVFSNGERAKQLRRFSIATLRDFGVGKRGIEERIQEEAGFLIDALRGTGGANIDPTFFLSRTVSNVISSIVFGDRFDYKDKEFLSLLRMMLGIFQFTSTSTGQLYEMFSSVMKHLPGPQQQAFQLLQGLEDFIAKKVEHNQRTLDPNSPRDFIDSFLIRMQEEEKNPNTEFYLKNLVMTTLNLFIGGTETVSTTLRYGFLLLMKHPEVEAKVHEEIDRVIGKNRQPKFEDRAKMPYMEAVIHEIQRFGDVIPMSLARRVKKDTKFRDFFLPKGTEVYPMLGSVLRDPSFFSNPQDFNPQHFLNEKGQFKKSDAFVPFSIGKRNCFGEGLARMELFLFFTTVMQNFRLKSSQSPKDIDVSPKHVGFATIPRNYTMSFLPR
- measurement.conditions: bti-tn-5b1-4
observed.property: Ki

Short answer for O=c1[nH]c2ccccc2c2ccccc12 : Ki was Not Active

Short answer for CO[C@@]12[C@H](COC(N)=O)C3=C(C(=O)C(C)=C(N)C3=O)N1C[C@@H]1N[C@@H]12 : Ki was Not Active

Short answer for CC(C)(C)NC[C@H](O)COc1cccc2c1CCCC2=O : Ki was Not Active

Short answer for CC[C@H](C)C(=O)O[C@H]1CCC=C2C=C[C@H](C)[C@H](CC[C@@H]3C[C@@H](O)CC(=O)O3)[C@H]21 : Ki was Not Active

====

- assay.remarks: DRUGMATRIX: Purinergic P2X radioligand binding (ligand: [3H] alpha, beta-Methylene-ATP)
- Type: cell membranes, Oryctolagus cuniculus, New Zealand albino, Urinary bladder, Membrane
- measurement.conditions: Not Active = under 50% inhibition at 10 µM
observed.property: IC50

Short answer for NC(N)=Nc1nc(CSCCC(N)=NS(N)(=O)=O)cs1 : IC50 was Not Active

Short answer for Cc1nnc(NS(=O)(=O)c2ccc(N)cc2)s1 : IC50 was Not Active

Short answer for CCN1CCN(C(=O)N[C@@H](C(=O)N[C@@H]2C(=O)N3[C@@H]2SC(C)(C)[C@@H]3C(=O)O)c2ccccc2)C(=O)C1=O : IC50 was Not Active

Short answer for c1ccc(Cn2ccnc2)cc1 : IC50 was Not Active

Short answer for CC[C@@]1(O)C(=O)OCc2c1cc1n(c2=O)Cc2cc3c(CN(C)C)c(O)ccc3nc2-1 : IC50 was Not Active

Others:
Short answer for CNC[C@H](O)c1ccc(O)c(O)c1 [EPINEPHRINE] : IC50 was Not Active

Short answer for c1ccc2c(c1)Nc1ccccc1S2 : IC50 was Not Active

Short answer for Nc1ccc(Cc2ccc(N)cc2)cc1 : IC50 was Not Active

Short answer for Cc1ccnc(NS(=O)(=O)c2ccc(N)cc2)n1 : IC50 was Not Active

Short answer for Clc1cc(Cl)c(OCC#CI)cc1Cl : IC50 was Not Active

Short answer for OC[C@H]1O[C@@H]2O[C@H]3[C@H](O)[C@@H](O)[C@@H](O[C@H]4[C@H](O)[C@@H](O)[C@@H](O[C@H]5[C@H](O)[C@@H](O)[C@@H](O[C@H]6[C@H](O)[C@@H](O)[C@@H](O[C@H]7[C@H](O)[C@@H](O)[C@@H](O[C@H]8[C@H](O)[C@@H](O)[C@@H](O[C@H]1[C@H](O)[C@H]2O)O[C@@H]8CO)O[C@@H]7CO)O[C@@H]6CO)O[C@@H]5CO)O[C@@H]4CO)O[C@@H]3CO : IC50 was Not Active

Short answer for OC[C@H]1O[C@@H]2O[C@H]3[C@H](O)[C@@H](O)[C@@H](O[C@H]4[C@H](O)[C@@H](O)[C@@H](O[C@H]5[C@H](O)[C@@H](O)[C@@H](O[C@H]6[C@H](O)[C@@H](O)[C@@H](O[C@H]7[C@H](O)[C@@H](O)[C@@H](O[C@H]1[C@H](O)[C@H]2O)O[C@@H]7CO)O[C@@H]6CO)O[C@@H]5CO)O[C@@H]4CO)O[C@@H]3CO : IC50 was Not Active

Short answer for CC(C)(C#N)c1cc(Cn2cncn2)cc(C(C)(C)C#N)c1 : IC50 was Not Active

====

- assay.remarks: DRUGMATRIX: Serotonin (5-Hydroxytryptamine) 5-HT3 radioligand binding (ligand: [3H] GR-65630)
- Format: cell membranes, Membrane
- measurement.conditions: hek293; Not Active = under 50% inhibition at 10 µM
observed.property: IC50

Short answer for O=C(O)c1cc(/N=N/c2ccc(S(=O)(=O)Nc3ccccn3)cc2)ccc1O [SULFASALAZINE] : IC50 was Not Active

Short answer for Oc1ccc(/C=C/c2cc(O)cc(O)c2)cc1 [RESVERATROL] : IC50 was Not Active

Short answer for CN(Cc1cc(Br)cc(Br)c1N)C1CCCCC1 [BROMHEXINE] : IC50 was Not Active

====

- assay.system: Cytochrome P450 1A2 (Homo sapiens, UniProt P05177); further: in other assays of this panel Not Active means under 50% inhibition at 10 µM
- Sequence (P05177 whole entry): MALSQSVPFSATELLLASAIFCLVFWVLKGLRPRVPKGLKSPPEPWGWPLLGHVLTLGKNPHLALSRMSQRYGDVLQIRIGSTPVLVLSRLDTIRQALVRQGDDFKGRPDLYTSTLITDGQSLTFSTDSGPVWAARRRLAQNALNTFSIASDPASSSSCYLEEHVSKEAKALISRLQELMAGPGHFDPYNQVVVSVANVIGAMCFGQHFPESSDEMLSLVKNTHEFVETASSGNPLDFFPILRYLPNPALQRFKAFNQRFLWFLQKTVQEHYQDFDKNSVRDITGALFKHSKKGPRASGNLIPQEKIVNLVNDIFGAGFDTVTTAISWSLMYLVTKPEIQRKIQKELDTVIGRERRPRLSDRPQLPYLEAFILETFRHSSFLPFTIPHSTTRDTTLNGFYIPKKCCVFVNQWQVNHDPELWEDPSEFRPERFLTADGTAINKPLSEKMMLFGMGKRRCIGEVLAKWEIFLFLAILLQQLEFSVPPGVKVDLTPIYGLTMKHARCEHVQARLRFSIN
- measurement.conditions: bti-tn-5b1-4
observed.property: Ki

Short answer for CCN1CCN(c2cc3c(cc2F)c(=O)c(C(=O)O)cn3C2CC2)CC1 : Ki was Not Active

Short answer for OC[C@H]1O[C@@H]2O[C@H]3[C@H](O)[C@@H](O)[C@@H](O[C@H]4[C@H](O)[C@@H](O)[C@@H](O[C@H]5[C@H](O)[C@@H](O)[C@@H](O[C@H]6[C@H](O)[C@@H](O)[C@@H](O[C@H]7[C@H](O)[C@@H](O)[C@@H](O[C@H]8[C@H](O)[C@@H](O)[C@@H](O[C@H]1[C@H](O)[C@H]2O)O[C@@H]8CO)O[C@@H]7CO)O[C@@H]6CO)O[C@@H]5CO)O[C@@H]4CO)O[C@@H]3CO : Ki was Not Active

Short answer for CCC1(c2ccccc2)C(=O)NC(=O)NC1=O : Ki was Not Active

Short answer for COC(=O)Nc1nc2ccc(Sc3ccccc3)cc2[nH]1 : Ki was Not Active

Now let's try a different one.
Short answer for O=C(Nc1ccc(Cl)c(Cl)c1)c1cc(Cl)cc(Cl)c1O [3,3',4',5-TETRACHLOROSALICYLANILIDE] : Ki was Not Active

====

- assay.system: Androgen receptor (Rattus norvegicus); further: in other assays of this panel Not Active means under 50% inhibition at 10 µM
- Sequence (P15207 whole entry): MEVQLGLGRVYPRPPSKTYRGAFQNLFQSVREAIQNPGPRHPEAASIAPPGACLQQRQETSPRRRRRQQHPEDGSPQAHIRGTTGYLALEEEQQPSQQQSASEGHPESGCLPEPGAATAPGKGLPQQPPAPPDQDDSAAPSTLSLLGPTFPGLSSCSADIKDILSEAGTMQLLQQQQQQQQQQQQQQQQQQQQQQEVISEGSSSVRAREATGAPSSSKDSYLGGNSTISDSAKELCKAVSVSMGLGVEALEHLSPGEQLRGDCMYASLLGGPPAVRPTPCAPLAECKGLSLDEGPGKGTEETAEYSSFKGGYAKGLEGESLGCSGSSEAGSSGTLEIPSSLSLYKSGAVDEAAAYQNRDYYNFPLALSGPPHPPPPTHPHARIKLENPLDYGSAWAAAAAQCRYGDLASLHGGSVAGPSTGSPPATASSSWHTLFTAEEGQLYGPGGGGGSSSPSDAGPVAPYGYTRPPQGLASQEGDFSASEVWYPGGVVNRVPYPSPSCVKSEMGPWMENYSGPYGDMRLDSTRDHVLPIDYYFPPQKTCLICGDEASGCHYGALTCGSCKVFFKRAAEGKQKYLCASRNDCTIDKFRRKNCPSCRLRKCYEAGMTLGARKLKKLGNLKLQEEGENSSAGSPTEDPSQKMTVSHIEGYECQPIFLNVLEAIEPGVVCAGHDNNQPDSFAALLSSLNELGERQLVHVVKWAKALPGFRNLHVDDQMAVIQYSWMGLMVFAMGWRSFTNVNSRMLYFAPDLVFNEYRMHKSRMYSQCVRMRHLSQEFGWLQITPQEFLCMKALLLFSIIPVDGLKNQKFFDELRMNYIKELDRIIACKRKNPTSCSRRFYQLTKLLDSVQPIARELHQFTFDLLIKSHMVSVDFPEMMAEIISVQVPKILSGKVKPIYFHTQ
observed.property: pIC50
Friendly reminder that pIC50 comes from taking -log10 of the concentration in mol/L.

Short answer for CCOC(=O)C1=C(C)NC(C)=C(C(=O)OCC)C1c1ccccc1/C=C/C(=O)OC(C)(C)C [LACIDIPINE] : pIC50 was 5.41

Others:
Short answer for CC(C)(c1ccc(O)cc1)c1ccc(O)cc1 [BISPHENOL A] : pIC50 was 4.47

====

- assay.system: Vasoactive intestinal polypeptide receptor 1 (Homo sapiens, UniProt P32241); further: in other assays of this panel Not Active means under 50% inhibition at 10 µM
- Sequence (P32241 whole entry): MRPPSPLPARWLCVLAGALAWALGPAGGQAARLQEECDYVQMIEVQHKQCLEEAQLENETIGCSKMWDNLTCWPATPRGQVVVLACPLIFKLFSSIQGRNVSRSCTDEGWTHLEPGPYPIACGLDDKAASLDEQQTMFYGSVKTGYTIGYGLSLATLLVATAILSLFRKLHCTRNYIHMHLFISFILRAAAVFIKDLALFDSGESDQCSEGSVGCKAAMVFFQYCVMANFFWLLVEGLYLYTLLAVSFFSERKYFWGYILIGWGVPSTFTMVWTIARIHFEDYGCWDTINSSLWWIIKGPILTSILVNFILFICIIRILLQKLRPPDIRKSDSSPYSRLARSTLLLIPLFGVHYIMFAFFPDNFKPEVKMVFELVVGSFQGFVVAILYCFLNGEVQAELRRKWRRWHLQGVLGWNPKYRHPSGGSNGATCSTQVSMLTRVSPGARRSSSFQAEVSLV
- Assay type: cell membranes, Membrane
- measurement.conditions: ht-29
observed.property: IC50

Please review the entries below; each comes with its answer.
Short answer for CO[C@@H]1[C@@H](OC)[C@H](C)[C@@](O)(CC(=O)O)O[C@H]1[C@H](C)[C@H]1O[C@@]2(CC[C@@](C)([C@H]3CC[C@@](C)([C@@H]4O[C@@H]([C@H]5O[C@](C)(O)[C@H](C)C[C@@H]5C)C[C@@H]4O[C@@H]4C[C@H](OC)[C@@H](OC)[C@H](C)O4)O3)O2)C[C@H](O)[C@H]1C.N [MADURAMICIN] : IC50 was Not Active

Short answer for CC1(COc2ccc(CC3SC(=O)NC3=O)cc2)CCCCC1 (stereo unspecified) [CIGLITAZONE] : IC50 was Not Active

Short answer for Cc1ccnc2c1NC(=O)c1cccnc1N2C1CC1 [NEVIRAPINE] : IC50 was Not Active

Short answer for CC12CCC(CC1=O)C2(C)C (stereo unspecified) [CAMPHOR] : IC50 was Not Active

Short answer for CCN1CCCC1CNC(=O)c1cc(S(N)(=O)=O)ccc1OC (stereo unspecified) [SULPIRIDE] : IC50 was Not Active

Others:
Short answer for C[C@]12CCC(=O)C[C@@H]1CC[C@@H]1[C@@H]2CC[C@]2(C)[C@@H](O)CC[C@@H]12 [STANOLONE] : IC50 was Not Active

Short answer for COc1cc(/C=C/C(=O)O)ccc1O [FERULATE] : IC50 was Not Active

Short answer for NS(=O)(=O)c1cc(C(=O)O)c(NCc2ccco2)cc1Cl [FUROSEMIDE] : IC50 was Not Active

Short answer for O=C(NCCN1CCOCC1)c1ccc(Cl)cc1 [MOCLOBEMIDE] : IC50 was Not Active

Short answer for O=C1c2ccccc2C(=O)C1c1ccccc1 [PHENINDIONE] : IC50 was Not Active

Short answer for CC(=O)[C@]1(O)Cc2c(O)c3c(c(O)c2[C@@H](O[C@H]2C[C@H](N)[C@H](O)[C@H](C)O2)C1)C(=O)c1ccccc1C3=O [IDARUBICIN] : IC50 was Not Active

Short answer for Cl.NC[C@H]1CC[C@H](C(=O)Oc2ccc(CCC(=O)O)cc2)CC1 [CETRAXATE HYDROCHLORIDE] : IC50 was Not Active
